All values here come from ChEMBL document CHEMBL4177600.

ASSAYED TARGET: Proto-oncogene tyrosine-protein kinase Src (Homo sapiens)
ASSAY TEXT: Inhibition of human SRC at 1 uM using poly(Glu,Tyr)4:1 as substrate by filter binding method relative to control
Below, each entry is listed with its recorded inhibition.

Would you please look over these solved cases?
CS(=O)(=O)N1CCN(Cc2nc3c(N4CCOCC4)nc(-c4cnc(N)nc4)c(Cl)n3n2)CC1
< 25%
CS(=O)(=O)N1CCN(Cc2cc3c(N4CCOCC4)nc(-c4cnc(N)nc4)cn3n2)CC1
< 25%
CS(=O)(=O)N1CCN(Cc2cn3nc(-c4cnc(N)nc4)nc(N4CCOCC4)c3n2)CC1
< 25%

// switching to the query compound
Reported Proto-oncogene tyrosine-protein kinase Src (Homo sapiens) inhibition for item CS(=O)(=O)N1CCN(Cc2nc3c(N4CCOCC4)nc(-c4cnc(N)nc4)cn3n2)CC1 was < 25%
